- assay-procedure: Solubility in water at pH 7.4
- Format: physicochemical

- smiles-data: "C[C@H](Nc1nc(N(C)C#N)nc(Cl)c1-c1c(F)cc(OCCCN(C)C)cc1F)C(F)(F)F"
  solubility: "> 100 µg/mL"

###

- System: KB
- assay-procedure: Antiproliferative activity against KB cells
- Format: functional, cell-based
- condition-details: Homo sapiens
property: IC50 (nM)

- smiles-data: "C[C@H](Nc1nc(N(C)C#N)nc(Cl)c1-c1c(F)cc(OCCCN(C)C)cc1F)C(F)(F)F"
  unit-annotation: "nM"
  reported: 24

###

- Test system: COLO 205
- assay-procedure: Cytotoxicity against COLO205 cells
- Format: functional, cell-based
- condition-details: Homo sapiens
pIC50: −log10 of the molar value.
property: pIC50

- smiles-data: "CN(C)CCCCOc1cc(F)c(-c2c(Cl)nc(N(C)C#N)nc2NCC(F)(F)F)c(F)c1"
  reported: 6.64
- smiles-data: "C[C@H](Nc1nc(N(C)C#N)nc(Cl)c1-c1c(F)cc(OCCCN(C)C)cc1F)C(F)(F)F"
  reported: 7.44
- smiles-data: "CN(C#N)c1nc(Cl)c(-c2c(F)cc(F)cc2F)c(NCC(F)(F)F)n1"
  reported: 6.67
- smiles-data: "CN(C)CCOc1cc(F)c(-c2c(Cl)nc(N(C)C#N)nc2NCC(F)(F)F)c(F)c1"
  reported: 6.27
- smiles-data: "CN(C)CCCOc1cc(F)c(-c2c(Cl)nc(N(C)C#N)nc2NCC(F)(F)F)c(F)c1"
  reported: 7.28
- smiles-data: "CCN(C#N)c1nc(Cl)c(-c2c(F)cc(F)cc2F)c(NCC(F)(F)F)n1"
  reported: 6.52
- smiles-data: "C=CCN(C#N)c1nc(Cl)c(-c2c(F)cc(F)cc2F)c(NCC(F)(F)F)n1"
  reported: 6.32

###

- assay-procedure: Stability in nude mouse microsomes after 30 mins
- Assay type: ADME, Microsome
- condition-details: read-out: Stability

- smiles-data: "C[C@H](Nc1nc(N(C)C#N)nc(Cl)c1-c1c(F)cc(OCCCN(C)C)cc1F)C(F)(F)F"
  unit-annotation: "%"
  remaining at 0.5 h: 92
